- Test system: Sh. flexneri2a
- experiment.notes: In vitro antibacterial activity, two-fold agar-plate dilution method (MIC), Sh. flexneri 2a
- Type: cell-based
- conditions.used: Shigella flexneri, HI-agar, 37° C., 20 hours, 10^8 viable cells per ml, read-out: minimal inhibitory concentration (MIC)
- Protocol: In vitro antibacterial activity was determined by the two-fold agar-plate dilution method as described below. One loopful of an overnight culture of each test strain in Trypticase-soy broth (10^8 viable cells per ml) was streaked on heart infusion agar (HI-agar) containing graded concentrations of antibiotics, and the minimal inhibitory concentration (MIC) was expressed in terms of μg/ml after incubation at 37° C. for 20 hours.
result.type: MIC (µg/mL)

[[record]]
molecule = "Cn1nnnc1SCC1=C(C(=O)O)N2C(=O)C(NC(=O)/C(=N\\OC(=O)c3ccccc3)c3cccc(O)c3)C2SC1 (stereo not shown)"
output_unit = "µg/mL"
measured = 0.78

[[record]]
molecule = "Cn1nnnc1SCC1=C(C(=O)O)N2C(=O)C(NC(=O)/C(=N\\O)c3ccc(O)cc3)C2SC1 (stereo not shown)"
output_unit = "µg/mL"
measured = 0.78

[[record]]
molecule = "NC(=O)OCC1=C(C(=O)O)N2C(=O)C(NC(=O)/C(=N\\O)c3cccc(O)c3)C2SC1 (stereo not shown)"
output_unit = "µg/mL"
measured = 0.78

[[record]]
molecule = "CC(=O)OCC1=C(C(=O)O)N2C(=O)C(NC(=O)/C(=N\\O)c3ccc(O)c(Cl)c3)C2SC1 (stereo not shown)"
output_unit = "µg/mL"
measured = 3.13

[[record]]
molecule = "CCOC(=O)O/N=C(\\C(=O)NC1C(=O)N2C(C(=O)O)=C(CSc3nnnn3C)CSC12)c1cccc(O)c1 (stereo not shown)"
output_unit = "µg/mL"
measured = 1.56

[[record]]
molecule = "Cn1nnnc1SCC1=C(C(=O)O)N2C(=O)C(NC(=O)/C(=N\\O)c3ccc(O)c([N+](=O)[O-])c3)C2SC1 (stereo not shown)"
output_unit = "µg/mL"
measured = 1.56

[[record]]
molecule = "Cc1nnc(SCC2=C(C(=O)O)N3C(=O)C(NC(=O)/C(=N\\O)c4cccc(O)c4)C3SC2)s1 (stereo not shown)"
output_unit = "µg/mL"
measured = 0.39


---

Observed MIC values for Sh. flexneri2a are listed in what follows.
result.type: MIC (µg/mL)

[[record]]
molecule = "CC(=O)OCC1=C(C(=O)O)N2C(=O)C(NC(=O)/C(=N\\O)c3cccc(O)c3)C2SC1 (stereo not shown) [Test Compound (8)]"
assay_target = "Sh. flexneri2a"
output_unit = "µg/mL"
measured = 0.78

[[record]]
molecule = "Cc1nnc(SCC2=C(C(=O)O)N3C(=O)C(NC(=O)/C(=N\\O)c4ccccc4)C3SC2)s1 (stereo not shown) [Test Compound (A), reference compound]"
assay_target = "Sh. flexneri2a"
output_unit = "µg/mL"
measured = 6.25

[[record]]
molecule = "Cn1nnnc1SCC1=C(C(=O)O)N2C(=O)C(NC(=O)/C(=N\\O)c3cccc(O)c3)C2SC1 (stereo not shown) [Test Compound (2)]"
assay_target = "Sh. flexneri2a"
output_unit = "µg/mL"
measured = 0.78

[[record]]
molecule = "O=C(O)C1=C(CSc2nncs2)CSC2C(NC(=O)/C(=N\\O)c3cccc(O)c3)C(=O)N12 (stereo not shown) [Test Compound (4)]"
assay_target = "Sh. flexneri2a"
output_unit = "µg/mL"
measured = 0.39

